Where these numbers come from: patent US12528864

Target: T1, cynomolgus monkey CD96v2 expressed on cells (CHO cells; transiently transfected HEK cells) (cynomolgus monkey, UniProt A0A2K5TWV6 22-569)
T1 construct: the cell is named under assay; also called CHO-cyCD96; Cyno CD96v2
T1 sequence: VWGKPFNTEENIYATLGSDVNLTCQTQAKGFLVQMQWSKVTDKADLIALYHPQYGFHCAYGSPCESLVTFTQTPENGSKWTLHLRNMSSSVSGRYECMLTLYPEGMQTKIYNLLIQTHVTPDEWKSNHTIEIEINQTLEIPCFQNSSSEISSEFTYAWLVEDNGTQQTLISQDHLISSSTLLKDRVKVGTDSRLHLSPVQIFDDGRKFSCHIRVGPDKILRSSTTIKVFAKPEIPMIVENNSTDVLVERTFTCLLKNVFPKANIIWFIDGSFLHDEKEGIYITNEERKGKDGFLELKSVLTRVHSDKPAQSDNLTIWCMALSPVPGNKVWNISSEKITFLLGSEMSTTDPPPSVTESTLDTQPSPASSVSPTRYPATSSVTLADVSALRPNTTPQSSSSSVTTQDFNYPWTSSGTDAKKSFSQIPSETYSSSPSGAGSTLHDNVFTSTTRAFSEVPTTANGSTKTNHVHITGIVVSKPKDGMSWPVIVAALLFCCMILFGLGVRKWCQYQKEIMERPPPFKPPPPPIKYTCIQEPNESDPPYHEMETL
Assay: flow cytometry on CHO cells expressing cynomolgus CD96v2
EC50 for assorted binders
REPORTED_METRIC: EC50 (pM)

1) 42Y073-86F04-3 (antibody, V domains shown, Fully human antibody) VH: QVQLVQSGAEVKKPGSSVKVSCKASGGTFSYNAISWVRQAPGQGLEWMGGIIPIMGTARYAQKFQGRVTITADESTSTAYMELSSLRSEDTAVYYCARLLGESGMDVWGQGTTVTVSS VL: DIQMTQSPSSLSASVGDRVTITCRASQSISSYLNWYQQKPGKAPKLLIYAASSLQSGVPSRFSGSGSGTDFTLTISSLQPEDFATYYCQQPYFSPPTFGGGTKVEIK | 40
2) 42Y073-1A01-85 (antibody, V domains shown, Fully human antibody) VH: QVQLVQSGAEVKKPGASVKVSCKASGYTFTSYPMHWVRQAPGQGLEWMGIINPSGGFTSYAQKFQGRVTMTRDTSTSTVYMELSSLRSEDTAVYYCARETAYYTTKGNWFDPWGQGTLVTVSA VL: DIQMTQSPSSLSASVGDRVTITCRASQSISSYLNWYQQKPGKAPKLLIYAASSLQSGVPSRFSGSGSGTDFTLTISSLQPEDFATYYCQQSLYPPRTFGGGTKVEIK | 10
3) 42Y073-86F04-5 (antibody, V domains shown, Fully human antibody) VH: QVQLVQSGAEVKKPGSSVKVSCKASGGTFSSHAISWVRQAPGQGLEWMGGIIPIFGRGKYAQKFQGRVTITADESTSTAYMELSSLRSEDTAVYYCARLLGESGMDVWGQGTTVTVSS VL: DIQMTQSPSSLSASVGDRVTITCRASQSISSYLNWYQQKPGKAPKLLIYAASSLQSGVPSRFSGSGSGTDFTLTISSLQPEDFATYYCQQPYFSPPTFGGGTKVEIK | 70
4) 42Y073-86F04-6 (antibody, V domains shown, Fully human antibody) VH: QVQLVQSGAEVKKPGSSVKVSCKASGGTFSGHAISWVRQAPGQGLEWMGGIIPIFGRARYAQKFQGRVTITADESTSTAYMELSSLRSEDTAVYYCARLLGESGMDVWGQGTTVTVSS VL: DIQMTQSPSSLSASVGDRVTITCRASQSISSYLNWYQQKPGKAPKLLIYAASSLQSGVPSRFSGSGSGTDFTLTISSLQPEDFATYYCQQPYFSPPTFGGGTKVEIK | 110
5) 42Y073-86F04-88 (antibody, V domains shown, Fully human antibody) VH: QVQLVQSGAEVKKPGSSVKVSCKASGGTFSSSAISWVRQAPGQGLEWMGGIIPIFGRANYAQKFQGRVTITADESTSTAYMELSSLRSEDTAVYYCARLLGESGMDVWGQGTTVTVSS VL: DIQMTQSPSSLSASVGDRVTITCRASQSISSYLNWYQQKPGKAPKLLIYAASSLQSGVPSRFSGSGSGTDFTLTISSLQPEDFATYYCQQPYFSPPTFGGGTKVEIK | 160
